Taken from patent US4788206A.

test system: PAF-Induced Bronchoconstriction; assay: PAF Induced Bronchoconstriction Assay; type: in vivo, guinea pig; conditions: i.v. (dose not given), 1 minute pretreatment, PAF 1.0 μg/kg i.v.
READOUT LABEL: Percent Inhib. of PAF-Induced Bronchoconstriction, mg/Kg i.v. (%)
Numbers only here, please. The scale is %.

Q: Reported Percent Inhib. of PAF-Induced Bronchoconstriction, mg/Kg i.v. for COc1cccc(/C(=C/C=C/C(=O)NCCCCc2cccnc2)c2cccc(F)c2)c1 : what is it?
Result: 90

Q: Reported Percent Inhib. of PAF-Induced Bronchoconstriction, mg/Kg i.v. for C[C@H](CCCc1cccnc1)NC(=O)/C=C/C=C(c1cccc(F)c1)c1cccc(F)c1 : what is it?
Result: 73

Q: Reported Percent Inhib. of PAF-Induced Bronchoconstriction, mg/Kg i.v. for COc1ccc(C(=C/C=C/C(=O)NC(CCCc2cccnc2)C2CC2)c2ccc(OC)cc2)cc1 (racemic) : what is it?
Result: 98

Q: Reported Percent Inhib. of PAF-Induced Bronchoconstriction, mg/Kg i.v. for COc1ccc(C(=C/C=C/C(=O)N[C@H](C)CCCc2cccnc2)c2ccc(OC)cc2)cc1 : what is it?
Result: 87

Q: Reported Percent Inhib. of PAF-Induced Bronchoconstriction, mg/Kg i.v. for COc1ccc(/C(=C\C=C\C(=O)N[C@H](C)CCCc2cccnc2)C2CCCCC2)cc1 : what is it?
Result: 18

---

Field: IC50. Provide a value for each of the molecules that follow.
molecular target: PAF Binding, dog platelets (Canis lupus familiaris, UniProt A0A8I3NSH0); construct: Washed platelets were prepared by resuspending the platelet pellet once with PBS containing 1 mM EDTA; from tissue; host or cells: washed platelets from dog blood; assay: PAF Binding Assay (inhibition of 3H-PAF binding to washed dog platelets); details: dog platelets, 3H-PAF, 10 minutes at room temperature; read-out: Inhib of PAF Binding IC50
Sequence (A0A8I3NSH0 1-343): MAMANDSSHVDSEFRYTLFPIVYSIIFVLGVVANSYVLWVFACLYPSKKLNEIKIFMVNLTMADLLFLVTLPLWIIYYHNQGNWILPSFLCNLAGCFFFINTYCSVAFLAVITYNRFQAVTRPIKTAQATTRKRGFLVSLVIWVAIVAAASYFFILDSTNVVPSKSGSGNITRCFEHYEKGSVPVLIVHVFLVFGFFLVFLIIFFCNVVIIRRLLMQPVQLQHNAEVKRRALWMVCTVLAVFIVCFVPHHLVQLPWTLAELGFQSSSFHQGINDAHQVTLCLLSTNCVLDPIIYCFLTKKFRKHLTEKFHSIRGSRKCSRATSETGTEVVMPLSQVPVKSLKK
Numbers only here, please. The scale is nM.

Q: Reported IC50 for COc1ccc(C(=C/C=C/C(=O)NCCCCCc2ccccn2)c2ccc(OC)cc2)cc1 : what is it?
Result: 1000

Q: Reported IC50 for CCCCC/C(=C\C=C\C(=O)N[C@H](C)CCCc1cccnc1)c1ccc(F)cc1 : what is it?
Result: 40

Q: Reported IC50 for O=C(/C=C/C=C(c1ccccc1)c1ccccc1)NCCCCc1cccnc1 : what is it?
Result: 55
